Where do these numbers come from? They come from patent US10604510B2.

# experimentSummary: Slurry screening, solubility determined by HPLC
# Type: physicochemical
# measurementContext: organic solvent or mixture, thermodynamic from solid; slurry stirred 5 days; solvent methyl acetate
resultType: solubility at 5 days (µg/mL)

INSERT INTO results (compound, numericvalue) VALUES
  ('CCCN(CCC)C(=O)C1=Cc2ccc(-c3ccc(C(=O)N4CCCC4)cc3)cc2N=C(N)C1 [starting material]', 940);

###

# experimentSummary: Solubility of Form A at 20° C. and 40° C.
# Type: physicochemical
# measurementContext: organic solvent or mixture, thermodynamic from solid; THF/EtOH 8:2 v/v, 40° C., stirred 2 days
resultType: solubility at 2 days (mg/mL)

INSERT INTO assay_data (compound, unitannotation, numericvalue) VALUES
  ('CCCN(CCC)C(=O)C1=Cc2ccc(-c3ccc(C(=O)N4CCCC4)cc3)cc2N=C(N)C1 [Form A]', 'mg/mL', 27.8);
